- Assay Procedure: Clearance of 99m-Tc-IMP-192 in BALB/c mice
- Type: in vivo
- Protocol Conditions: BALB/c, mouse, total radioactivity; Blood, 2 h
Where a SMILES comes first, the peptide text is derived from it. Side-chain parts run from the residue outwards. The star is where a group is joined. DTPA = O=C(O)CN(CCN(CC(=O)O)CC(=O)O)CCN(CC(=O)O)CC(=O)*; X1 = NC(=S)NN=CC(=O)*
Measurement Label: tissue uptake at 2 h (%ID/g)
The response must be a number in %ID/g with no trailing unit.

Lookup: Return reported tissue uptake at 2 h; argument: CC(=O)N[C@@H](CCCCNC(=O)CN(CCN(CCN(CC(=O)O)CC(=O)O)CC(=O)O)CC(=O)O)C(=O)N[C@@H](Cc1ccc(O)cc1)C(=O)N[C@@H](CCCCNC(=O)CN(CCN(CCN(CC(=O)O)CC(=O)O)CC(=O)O)CC(=O)O)C(=O)N[C@@H](CCCCNC(=O)[C@H](CS)NC(=O)C=NNC(N)=S)C(N)=O [IMP 192] (Ac-K(DTPA)YK(DTPA)K([Cys-X1])-NH2)
Found: 0.21

###

- Assay Procedure: Pretargeting: 125-I-hMN-14 × 734 bsAb, 24 h later 99m-Tc-IMP-192, biodistribution
- Type: in vivo, Nude mice
- Protocol Conditions: female, nude (Taconic NCRNU), mouse, total radioactivity; Lungs, 1 h post peptide
Where a SMILES comes first, the peptide text is derived from it. Side-chain parts run from the residue outwards. The star is where a group is joined. DTPA = O=C(O)CN(CCN(CC(=O)O)CC(=O)O)CCN(CC(=O)O)CC(=O)*; X1 = NC(=S)NN=CC(=O)*
Measurement Label: tissue uptake at 1 h (%ID/g)
The response must be a number in %ID/g with no trailing unit.

Lookup: Return reported tissue uptake at 1 h; argument: CC(=O)N[C@@H](CCCCNC(=O)CN(CCN(CCN(CC(=O)O)CC(=O)O)CC(=O)O)CC(=O)O)C(=O)N[C@@H](Cc1ccc(O)cc1)C(=O)N[C@@H](CCCCNC(=O)CN(CCN(CCN(CC(=O)O)CC(=O)O)CC(=O)O)CC(=O)O)C(=O)N[C@@H](CCCCNC(=O)[C@H](CS)NC(=O)C=NNC(N)=S)C(N)=O [IMP 192] (Ac-K(DTPA)YK(DTPA)K([Cys-X1])-NH2)
Found: 3.6

###

- Assay Procedure: Clearance of 99m-Tc-IMP-192 in BALB/c mice
- Assay type: in vivo
- Protocol Conditions: BALB/c, mouse; Spleen, 1 h
Where a SMILES comes first, the peptide text is derived from it. Side-chain parts run from the residue outwards. The star is where a group is joined. DTPA = O=C(O)CN(CCN(CC(=O)O)CC(=O)O)CCN(CC(=O)O)CC(=O)*; X1 = NC(=S)NN=CC(=O)*
Measurement Label: tissue uptake at 1 h (%ID/g)
The response must be a number in %ID/g with no trailing unit.

Lookup: Return reported tissue uptake at 1 h; argument: CC(=O)N[C@@H](CCCCNC(=O)CN(CCN(CCN(CC(=O)O)CC(=O)O)CC(=O)O)CC(=O)O)C(=O)N[C@@H](Cc1ccc(O)cc1)C(=O)N[C@@H](CCCCNC(=O)CN(CCN(CCN(CC(=O)O)CC(=O)O)CC(=O)O)CC(=O)O)C(=O)N[C@@H](CCCCNC(=O)[C@H](CS)NC(=O)C=NNC(N)=S)C(N)=O [IMP 192] (Ac-K(DTPA)YK(DTPA)K([Cys-X1])-NH2)
Found: 0.08

###

- Assay Procedure: Control group: clearance of 111-In-indium-IMP-156 alone
- Assay type: in vivo, nude mice
- Protocol Conditions: female, NCRNU nude, mouse, total radioactivity, Spleen
Where a SMILES comes first, the peptide text is derived from it. The star is where a group is joined. DTPA = O=C(O)CN(CCN(CC(=O)O)CC(=O)O)CCN(CC(=O)O)CC(=O)*
Measurement Label: tissue uptake at 3 h (%ID/g)
The response must be a number in %ID/g with no trailing unit.

Lookup: Return reported tissue uptake at 3 h; argument: CC(=O)N[C@@H](Cc1ccccc1)C(=O)N[C@@H](CCCCNC(=O)CN(CCN(CCN(CC(=O)O)CC(=O)O)CC(=O)O)CC(=O)O)C(=O)N[C@@H](Cc1ccc(O)cc1)C(=O)N[C@@H](CCCCNC(=O)CN(CCN(CCN(CC(=O)O)CC(=O)O)CC(=O)O)CC(=O)O)C(N)=O [IMP 156, Ac-Phe-Lys(DTPA)-Tyr-Lys(DTPA)-NH2] (Ac-FK(DTPA)YK(DTPA)-NH2)
Found: 0.28

###

- Assay Procedure: Comparison of ^177Lu-IMP-241 and ^111In-IMP-241 pretargeting using hMN-14 × m679 F(ab′)2 bsMAb (24 h bsMAb clearance)
- Assay type: in vivo, nude mice
- Protocol Conditions: female, NCr nude, mouse, spleen, iv, total radioactivity, Spleen, 3 hour after peptide; read-out: Percent Injected Dose Per Gram
*1 amine or outer side, *2 acyl side, *3 side chain or, on linkers, in order; H or OH if unused. Where a SMILES comes first, the peptide text is derived from it. Side-chain parts run from the residue outwards. [ ]: non-standard residue; d: D form. The star is where a group is joined. DOTA = O=C(O)CN1CCN(CC(=O)O)CCN(CC(=O)*)CCN(CC(=O)O)CC1; NH(2-(imidazol-4-yl)ethyl) = c1ncc(CCN*)[nH]1; Suc = O=C(CCC(=O)[*:2])[*:1]
Measurement Label: tissue uptake at 3 h (%ID/g)
The response must be a number in %ID/g with no trailing unit.

Lookup: Return reported tissue uptake at 3 h; argument: NC(=O)[C@H](CCCCNC(=O)CNC(=O)CCC(=O)NCCc1cnc[nH]1)NC(=O)[C@@H](Cc1ccc(O)cc1)NC(=O)[C@H](CCCCNC(=O)CNC(=O)CCC(=O)NCCc1cnc[nH]1)NC(=O)[C@H](Cc1ccccc1)NC(=O)CN1CCN(CC(=O)O)CCN(CC(=O)O)CCN(CC(=O)O)CC1 [^177Lu-IMP-241, metal not drawn] ({DOTA}-FK([Gly-Suc-NH(2-(imidazol-4-yl)ethyl)])[dY]K([Gly-Suc-NH(2-(imidazol-4-yl)ethyl)])-NH2)
Found: 0.36

###

- Assay Procedure: Pretargeting: 125-I-hMN-14 × 734 bsAb, 24 h later 99m-Tc-IMP-192, biodistribution
- Assay type: in vivo, Nude mice
- Protocol Conditions: female, NCRNU nude, mouse, total radioactivity; Tumor, 24 h post peptide
Where a SMILES comes first, the peptide text is derived from it. Side-chain parts run from the residue outwards. The star is where a group is joined. DTPA = O=C(O)CN(CCN(CC(=O)O)CC(=O)O)CCN(CC(=O)O)CC(=O)*; X1 = NC(=S)NN=CC(=O)*
Measurement Label: tissue uptake at 24 h

Lookup: Return reported tissue uptake at 24 h; argument: CC(=O)N[C@@H](CCCCNC(=O)CN(CCN(CCN(CC(=O)O)CC(=O)O)CC(=O)O)CC(=O)O)C(=O)N[C@@H](Cc1ccc(O)cc1)C(=O)N[C@@H](CCCCNC(=O)CN(CCN(CCN(CC(=O)O)CC(=O)O)CC(=O)O)CC(=O)O)C(=O)N[C@@H](CCCCNC(=O)[C@H](CS)NC(=O)C=NNC(N)=S)C(N)=O [IMP 192] (Ac-K(DTPA)YK(DTPA)K([Cys-X1])-NH2)
Found: 8.7 %ID/g

###

- Assay Procedure: Clearance of 99m-Tc-IMP-192 in BALB/c mice
- Type: in vivo
- Protocol Conditions: BALB/c, mouse, large intestine, total radioactivity; Lg.Int., 4 h
Where a SMILES comes first, the peptide text is derived from it. Side-chain parts run from the residue outwards. The star is where a group is joined. DTPA = O=C(O)CN(CCN(CC(=O)O)CC(=O)O)CCN(CC(=O)O)CC(=O)*; X1 = NC(=S)NN=CC(=O)*
Measurement Label: tissue uptake at 4 h
Mention the unit after the number when you answer.

Lookup: Return reported tissue uptake at 4 h; argument: CC(=O)N[C@@H](CCCCNC(=O)CN(CCN(CCN(CC(=O)O)CC(=O)O)CC(=O)O)CC(=O)O)C(=O)N[C@@H](Cc1ccc(O)cc1)C(=O)N[C@@H](CCCCNC(=O)CN(CCN(CCN(CC(=O)O)CC(=O)O)CC(=O)O)CC(=O)O)C(=O)N[C@@H](CCCCNC(=O)[C@H](CS)NC(=O)C=NNC(N)=S)C(N)=O [IMP 192] (Ac-K(DTPA)YK(DTPA)K([Cys-X1])-NH2)
Found: 1.58 %ID/g

###

- Assay Procedure: Control group: clearance of 111-In-indium-IMP-156 alone
- Format: in vivo, nude mice
- Protocol Conditions: female, NCRNU nude, mouse, total radioactivity, Lungs
Where a SMILES comes first, the peptide text is derived from it. The star is where a group is joined. DTPA = O=C(O)CN(CCN(CC(=O)O)CC(=O)O)CCN(CC(=O)O)CC(=O)*
Measurement Label: tissue uptake at 3 h (%ID/g)
The response must be a number in %ID/g with no trailing unit.

Lookup: Return reported tissue uptake at 3 h; argument: CC(=O)N[C@@H](Cc1ccccc1)C(=O)N[C@@H](CCCCNC(=O)CN(CCN(CCN(CC(=O)O)CC(=O)O)CC(=O)O)CC(=O)O)C(=O)N[C@@H](Cc1ccc(O)cc1)C(=O)N[C@@H](CCCCNC(=O)CN(CCN(CCN(CC(=O)O)CC(=O)O)CC(=O)O)CC(=O)O)C(N)=O [IMP 156, Ac-Phe-Lys(DTPA)-Tyr-Lys(DTPA)-NH2] (Ac-FK(DTPA)YK(DTPA)-NH2)
Found: 0.04

Source of measurements: patent US20060140858A1
